Test system: A549 NSCLC
protocol.description: NCI tumour cell line growth inhibition, 48 h; in the data active means GI50 below about 0.43 µM; inactive means the rest
Labels: 1 = active, 0 = inactive

# molecule, group.label
data = [
    ("CC(C)(C)NC(C1=CC(C)(C)c2ccccc2C1=O)c1ccccc1 (centres undefined)", 0),
    ("Cn1cc(C2=C(c3cccc4ccccc34)C(=O)NC2=O)c2ccccc21", 0),
    ("COc1cc2nc3sc(C(=O)Nc4ccc(C(=O)OC(C)C)cc4)c(C(=O)Nc4ccc(Cl)cc4C)n3c(=O)c2cc1OC", 0),
    ("CCN(CC)CCCC(C)Nc1cnc(C(=O)Nc2ccc(Cl)c3cccnc23)cn1 (centres undefined)", 0),
    ("O=c1cc(-c2cccc(C(F)(F)F)c2)[nH]c2cc3c(cc12)OCO3", 0),
    ("CC(=O)[CH-]C(=O)c1ccccc1.CC(=O)[CH-]C(=O)c1ccccc1.CC[O-].CC[O-].[Zr+4]", 0),
    ("COc1cc(C(=O)c2ccc3c(c2)OCO3)cc(OC)c1OC", 0),
    ("COc1ccc(N(CC(=O)NCCC[Te]c2ccccc2)C(=O)c2ccccc2)cc1", 1),
    ("Oc1ccccc1-c1nn(CNc2cccc(Cl)c2)c(=S)o1", 0),
]

* * *

TGI listing for selected molecules.
System: RPMI-8226 leukemia
protocol.description: NCI tumour cell line growth inhibition, 48 h
measured.quantity: TGI (µM)

# molecule, measured.quantity, censoring.operator, result.number
measured = [
    ("O=C1/C(=C/c2cccnc2)C(n2cccc2)c2c(Br)sc(Br)c21 (stereo not given)", "TGI", "=", 4.94),
    ("N#C/C(=C\\c1ccc(-c2ccc(Cl)cc2)o1)C(=O)Nc1ncc(Cc2ccc(Cl)cc2)s1", "TGI", ">", 100),
    ("CN(C)CCNC(=O)c1cc2ccccc2c2nc3ccccc3nc12", "TGI", "=", 3.42),
    ("COc1cc(/C=C2\\C[C@H]3[C@@H]4CC=C5C[C@@H](O)CC[C@]5(C)[C@H]4CC[C@]3(C)[C@H]2O)cc(OC)c1OC", "TGI", ">", 100),
    ("Cc1ccc([N+](=O)[O-])c2c(NCCNC(=O)Cn3ccnc3[N+](=O)[O-])ccnc12", "TGI", ">", 100),
]

* * *

TGI listing for selected compounds.
System: DU-145 prostate
protocol.description: NCI tumour cell line growth inhibition, 48 h

# compound, TGI
data = [
    ("Cn1nccc1Nc1nccc(-c2cc3c(s2)C(C)(C)N(CCN2CCOCC2)C3=O)n1", "> 100 µM"),
    ("COC(=O)Nc1nc2ccc(Oc3ccc(NC(=O)Nc4cccc(C(=O)O)c4)cc3)cc2[nH]1", "> 25 µM"),
    ("CCCN(CCC)C(=O)C1=Cc2ccc(-c3ccc(C(=O)N4CCCC4)cc3)cc2N=C(N)C1", "91.1 µM"),
    ("CN(C)c1ccc(/C=C2/SC(=S)NC2=O)cc1", "> 100 µM"),
    ("Cn1cc(C2=C(c3cccc4ccccc34)C(=O)NC2=O)c2ccccc21", "> 25 µM"),
    ("O=C1CC(c2ccc(N3CCOCC3)cc2)(c2ccsc2)NC(=O)C1Sc1ccccc1Cl (stereo not given)", "> 100 µM"),
    ("O=c1[nH]nc(Cc2ccccc2)n1/N=C/c1c(O)ccc2ccccc12", "> 100 µM"),
    ("Cc1ccc(Cl)c2c(=O)c3ccc([N+](=O)[O-])cc3sc12", "> 100 µM"),
    ("Cc1cc2c(cc1Cl)SC1=CC(=O)N(c3ccccc3)C1=NS2(=O)=O", "> 100 µM"),
    ("CN(NC(=O)c1ccco1)C1=NCCN1", "> 100 µM"),
]
